System: Plasmodium falciparum
Assay: NOVARTIS: Inhibition of Plasmodium falciparum 3D7 (drug-susceptible) proliferation in erythrocyte-based infection assay
Format: functional, organism-based
Conditions: Plasmodium falciparum, 3D7

{"columns": ["compound", "EC50"],
 "data": [
  ["COc1cc(CNc2ccc3nc(N)nc(N)c3c2)cc(OC)c1OC", "> 1030 nM"],
  ["CCCCCCCC(=O)N1CCN(C(=O)C(NC(=O)Nc2ccc(Cl)cc2Cl)C(C)CC)CC1 (stereo not drawn)", "> 40.8 nM"],
  ["COc1ccc(NC(=O)CCCCCn2c(SCC(=O)NCCc3ccc(OC)c(OC)c3)nc3ccsc3c2=O)cc1", "> 5310 nM"]
]}
